Reported K0.5-mut/K0.5-wt values for a set of proteins
Biological target: plasma purified human antithrombin III (AT-III), as complex with unfractionated heparin
Test: ratio of K0.5 to Catalyst Biosciences WT FIXa, AT-III/UFH inhibition
Enter the number alone.

PROTEIN: FIXa-R318Y/R338E/E410S (protein) chain 1: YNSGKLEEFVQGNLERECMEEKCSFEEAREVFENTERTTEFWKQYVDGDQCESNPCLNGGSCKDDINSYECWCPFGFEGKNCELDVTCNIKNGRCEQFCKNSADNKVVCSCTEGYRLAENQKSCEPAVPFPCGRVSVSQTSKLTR chain 2: VVGGEDAKPGQFPWQVVLNGKVDAFCGGSIVNEKWIVTAAHCVETGVKITVVAGEHNIEETEHTEQKRNVIRIIPHHNYNAAINKYNHDIALLELDEPLVLNSYVTPICIADKEYTNIFLKFGSGYVSGWGRVFHKGYSALVLQYLRVPLVDRATCLESTKFTIYNNMFCAGFHEGGRDSCQGDSGGPHVTEVEGTSFLTGIISWGEECAMKGKYGIYTKVSRYVNWIKSKTKLT
K0.5-mut/K0.5-wt: 279

Given item FIXa-A103N/N105S/K247N/N249S/R318Y/R338E/R403E/E410N (protein) chain 1: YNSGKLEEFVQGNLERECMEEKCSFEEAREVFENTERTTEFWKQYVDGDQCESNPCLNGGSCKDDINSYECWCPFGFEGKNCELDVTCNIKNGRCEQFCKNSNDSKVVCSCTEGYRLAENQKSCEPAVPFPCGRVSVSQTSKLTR chain 2: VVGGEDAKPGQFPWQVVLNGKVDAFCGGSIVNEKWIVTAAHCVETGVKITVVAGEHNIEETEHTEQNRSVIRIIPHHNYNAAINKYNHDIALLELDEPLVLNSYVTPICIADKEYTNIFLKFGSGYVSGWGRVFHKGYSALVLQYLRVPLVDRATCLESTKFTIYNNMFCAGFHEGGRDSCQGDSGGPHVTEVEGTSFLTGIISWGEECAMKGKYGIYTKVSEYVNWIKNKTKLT , the value recorded as its K0.5-mut/K0.5-wt is 129
